# key: entry, value: IC50
Study target: Matrix metalloproteinase-14 (Homo sapiens, UniProt P50281)
Assay name: Inhibition of human recombinant MMP14 using MCA-Pro-Leu-Gly-Leu-Dpa-Ala-Arg-NH2.AcOH as substrate preincubated for 10 mins measured by fluorescence analysis

Smiles structure | IC50
Cc1c(C(=O)O)ccc2c1CC[C@@H]2NC(=O)c1cc(C(=O)NCc2ccc(F)c(C(F)(F)F)c2)nc2c(F)cnn12 | > 20 µM

What the record says about Cc1c(C(=O)O)ccc2c1CC[C@@H]2NC(=O)c1cc(C(=O)NCc2ccc3c(c2)NC(=O)CO3)nc2ccnn12 : IC50 is > 20 µM

----------
Study target: Stromelysin-1 (Homo sapiens, UniProt P08254)
Sequence (P08254 whole entry): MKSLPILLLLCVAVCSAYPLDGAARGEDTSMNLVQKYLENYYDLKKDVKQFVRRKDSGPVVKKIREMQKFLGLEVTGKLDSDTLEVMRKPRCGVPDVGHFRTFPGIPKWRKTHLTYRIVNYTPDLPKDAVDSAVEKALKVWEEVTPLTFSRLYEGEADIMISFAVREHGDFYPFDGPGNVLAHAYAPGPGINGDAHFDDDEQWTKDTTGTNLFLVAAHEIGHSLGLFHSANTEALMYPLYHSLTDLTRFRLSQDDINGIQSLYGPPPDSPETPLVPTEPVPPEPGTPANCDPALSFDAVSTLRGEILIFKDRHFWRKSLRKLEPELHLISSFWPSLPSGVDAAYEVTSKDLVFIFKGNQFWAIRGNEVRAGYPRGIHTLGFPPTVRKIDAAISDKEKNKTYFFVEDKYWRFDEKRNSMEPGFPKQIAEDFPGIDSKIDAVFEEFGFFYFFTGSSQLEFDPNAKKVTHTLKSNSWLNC
Assay name: Inhibition of human recombinant MMP3 using MCAArg-Pro-Lys-Pro-Val-Glu-Nva-Trp-Arg-Lys(DNP)-NH2 as substrate preincubated for 10 mins measured by fluorescence analysis
Property name: IC50 (µM)

A: Cc1c(C(=O)O)ccc2c1CC[C@@H]2NC(=O)c1cc(C(=O)NCc2ccc3c(c2)NC(=O)CO3)nc2ccnn12
B: Cc1c(C(=O)O)ccc2c1CC[C@@H]2NC(=O)c1cc(C(=O)NCc2ccc(F)c(C(F)(F)F)c2)nc2c(F)cnn12
## Task Which is greater in IC50, the first item A or the second item B ? Lab note: record the label of whichever item you select.
## Result B

----------
Assay name: Metabolic stability in rat microsomes assessed as unmetabolized compound after 60 mins
Assay type: ADME, Microsome
Conditions used: read-out: Stability
Property name: remaining at 1 h (%)
State just the number; it will be interpreted in %.

The molecule identified as Cc1c(C(=O)O)ccc2c1CC[C@@H]2NC(=O)c1cc(C(=O)NCc2ccc3c(c2)NC(=O)CO3)nc2ccnn12 registered its remaining at 1 h at 95

----------
Study target: Matrix metalloproteinase-9 (Homo sapiens)
Sequence (P14780 whole entry): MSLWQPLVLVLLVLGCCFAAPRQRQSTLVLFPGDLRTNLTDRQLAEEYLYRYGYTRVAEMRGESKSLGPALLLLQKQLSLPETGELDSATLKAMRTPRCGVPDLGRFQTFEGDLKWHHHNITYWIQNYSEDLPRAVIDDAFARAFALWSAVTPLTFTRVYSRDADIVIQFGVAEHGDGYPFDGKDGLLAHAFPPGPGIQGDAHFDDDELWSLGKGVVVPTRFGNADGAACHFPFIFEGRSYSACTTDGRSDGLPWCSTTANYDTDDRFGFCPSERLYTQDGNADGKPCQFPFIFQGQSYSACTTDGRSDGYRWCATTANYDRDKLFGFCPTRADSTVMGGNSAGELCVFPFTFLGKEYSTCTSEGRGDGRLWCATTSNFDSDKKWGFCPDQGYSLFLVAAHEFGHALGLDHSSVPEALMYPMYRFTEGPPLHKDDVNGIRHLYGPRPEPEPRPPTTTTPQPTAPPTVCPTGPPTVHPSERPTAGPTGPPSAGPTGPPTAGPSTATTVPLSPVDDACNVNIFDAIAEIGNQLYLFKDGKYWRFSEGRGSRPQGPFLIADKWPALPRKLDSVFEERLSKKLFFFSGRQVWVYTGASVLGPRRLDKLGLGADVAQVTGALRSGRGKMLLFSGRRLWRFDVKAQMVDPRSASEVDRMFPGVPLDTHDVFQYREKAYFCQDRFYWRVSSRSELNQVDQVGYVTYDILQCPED
Assay name: Inhibition of human recombinant MMP9 using MCA-Pro-Leu-Gly-Leu-Dpa-Ala-Arg-NH2.AcOH as substrate preincubated for 10 mins measured by fluorescence analysis
Property name: IC50

Smiles structure | Study target | Result
Cc1c(C(=O)O)ccc2c1CC[C@@H]2NC(=O)c1cc(C(=O)NCc2ccc(F)c(C(F)(F)F)c2)nc2c(F)cnn12 | Matrix metalloproteinase-9 (Homo sapiens) | > 20 µM

Turning to the following compound.
// recorded IC50 for Cc1c(C(=O)O)ccc2c1CC[C@@H]2NC(=O)c1cc(C(=O)NCc2ccc3c(c2)NC(=O)CO3)nc2ccnn12 : > 20 µM

----------
Assay name: Metabolic stability in human microsomes assessed as unmetabolized compound after 60 mins
Assay type: ADME, Microsome
Conditions used: read-out: Stability
Property name: remaining at 1 h (%)
Respond with the bare value in %.

Value of measured remaining at 1 h for the entry Cc1c(C(=O)O)ccc2c1CC[C@@H]2NC(=O)c1cc(C(=O)NCc2ccc3c(c2)NC(=O)CO3)nc2ccnn12 : 96

----------
Study target: Interstitial collagenase (Homo sapiens, UniProt P03956)
Sequence (P03956 whole entry): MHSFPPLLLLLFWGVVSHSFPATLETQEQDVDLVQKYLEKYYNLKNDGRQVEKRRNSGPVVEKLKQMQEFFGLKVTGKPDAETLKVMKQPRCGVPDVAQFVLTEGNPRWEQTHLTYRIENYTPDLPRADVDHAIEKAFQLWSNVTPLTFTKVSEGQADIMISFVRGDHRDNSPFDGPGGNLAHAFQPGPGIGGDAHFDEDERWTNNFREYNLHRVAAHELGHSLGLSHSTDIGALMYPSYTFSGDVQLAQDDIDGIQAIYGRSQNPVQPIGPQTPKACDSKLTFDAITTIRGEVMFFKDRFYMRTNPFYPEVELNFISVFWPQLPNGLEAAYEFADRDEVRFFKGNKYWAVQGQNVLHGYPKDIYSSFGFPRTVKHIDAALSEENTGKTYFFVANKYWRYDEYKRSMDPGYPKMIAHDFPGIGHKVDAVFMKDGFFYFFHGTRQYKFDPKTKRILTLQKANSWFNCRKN
Assay name: Inhibition of human recombinant MMP1 using MCA-Pro-Leu-Gly-Leu-Dpa-Ala-Arg-NH2.AcOH as substrate preincubated for 10 mins measured by fluorescence analysis
Property name: IC50

Smiles structure | IC50
Cc1c(C(=O)O)ccc2c1CC[C@@H]2NC(=O)c1cc(C(=O)NCc2ccc(F)c(C(F)(F)F)c2)nc2c(F)cnn12 | > 20 µM

Proceed to the following item.
Reading of IC50 for Cc1c(C(=O)O)ccc2c1CC[C@@H]2NC(=O)c1cc(C(=O)NCc2ccc3c(c2)NC(=O)CO3)nc2ccnn12 with Interstitial collagenase (Homo sapiens, UniProt P03956): > 20 µM
